# experiment: In vitro cytotoxicity in hypoxic cells (% survival)
# Type: cell-based, Chinese hamster
# setupConditions: hamster, v-79 cells, 2 hours, 0.05 mM, read-out: In vitro cytoxicity in hypoxic cells (% survival at 2 hours)
Reported viability at 2 h, 50 µM is given for each of the following molecules.

# smiles, viability at 2 h, 50 µM, %
rows = [
    ("O=C(OC[C@H]1O[C@H](n2ccnc2[N+](=O)[O-])[C@@H](OC(=O)c2ccccc2)[C@@H]1OC(=O)c1ccccc1)c1ccccc1", 84),
    ("O=C(OC[C@H]1O[C@@H](n2ccnc2[N+](=O)[O-])[C@@H](OC(=O)c2ccccc2)[C@@H]1OC(=O)c1ccccc1)c1ccccc1", 102),
]

---

# experiment: In vitro cytotoxicity in oxic cells (% survival)
# Format: cell-based, Chinese hamster
# setupConditions: hamster, v-79 cells, oxic, 2 hours, 0.25 mM; read-out: In vitro cytoxicity in oxic cells (% survival at 2 hours)
quantity: viability at 2 h, 250 µM (%)

# compound, quantity, resultUnit, measured
measured = [
    ("O=[N+]([O-])c1nccn1[C@@H]1C=C[C@H](O)[C@@H](CO)O1 [A]", "viability at 2 h, 250 µM", "%", 104),
]

---

# experiment: Pharmacokinetics, localization in tissue in mice bearing B16 melanoma
# Format: in vivo, mouse (C57/BL)
# setupConditions: mouse, tumor/plasma, ip, 1000 mg/kg; 30 min; read-out: Ratio of Tumor/plasma

# smiles, Kp at 0.5 h
measured = [
    ("O=[N+]([O-])c1nccn1[C@@H]1C=C[C@H](O)[C@@H](CO)O1", 0.278),
]

---

# experiment: In vitro cytotoxicity in hypoxic cells (% survival)
# Format: cell-based, Chinese hamster
# setupConditions: hamster, v-79 cells, 2 hours, 1.0 mM, read-out: In vitro cytoxicity in hypoxic cells (% survival at 2 hours)

# smiles, viability at 2 h, 1000 µM (%)
records = [
    ("O=[N+]([O-])c1nccn1[C@@H]1C=C[C@H](O)[C@@H](CO)O1", 59.6),
]

---

# experiment: In vitro cytotoxicity in oxic cells (% survival)
# Type: cell-based, Chinese hamster
# setupConditions: hamster, v-79 cells, oxic, 2 hours, 1.0 mM; read-out: In vitro cytoxicity in oxic cells (% survival at 2 hours)
quantity: viability at 2 h, 1000 µM (%)

# molecule, quantity, measured
records = [
    ("O=[N+]([O-])c1nccn1C1O[C@H](CO)[C@@H](O)[C@@H]1O (stereo partly drawn) [D, 1(D-Arabinofuranosyl)-2-nitroimidazole]", "viability at 2 h, 1000 µM", 99),
    ("O=[N+]([O-])c1nccn1C1CCCC1O (centres unmarked) [K]", "viability at 2 h, 1000 µM", 107),
    ("O=[N+]([O-])c1nccn1C1CCCCC1O (centres unmarked) [L, 1-(2-Hydroxycyclohexyl)-2-nitroimidazole]", "viability at 2 h, 1000 µM", 86),
    ("O=[N+]([O-])c1nccn1C1C[C@H](O)[C@@H](CO)O1 (some centres unmarked) [G]", "viability at 2 h, 1000 µM", 93),
    ("O=[N+]([O-])c1nccn1C1CCCCO1 (centres unmarked) [J]", "viability at 2 h, 1000 µM", 105),
    ("O=[N+]([O-])c1nccn1C1CCCO1 (centres unmarked) [I]", "viability at 2 h, 1000 µM", 87.1),
    ("O=[N+]([O-])c1nccn1COCCO [M]", "viability at 2 h, 1000 µM", 104),
    ("O=[N+]([O-])c1nccn1[C@@H]1C=C[C@H](O)[C@@H](CO)O1 [A]", "viability at 2 h, 1000 µM", 82.4),
]
